Tested on: P. aeruginosa CANWARD-2011 96846
Format: cell-based, Pseudomonas aeruginosa
Description: Bacterial strains were either obtained from the American Type Culture Collection (ATCC), Canadian National Intensive Care Unit (CAN-ICU) surveillance study or the Canadian Ward Surveillance (CANWARD) study. […] The in vitro antibacterial activity of the compounds studied were assessed by broth microdilution susceptibility testing following CLSI guidelines. […]
Positions of bridges follow the written chain, without caps; N, C: chain ends. Non-standard residues stand in square brackets, D forms with d. Residues, ends and D or L forms follow the SMILES beside them. *: point of attachment. Acetyl(1-adamantyl) = O=C(CC12CC3CC(CC(C3)C1)C2)*; Benzoyl(4-Ph) = O=C(c1ccc(-c2ccccc2)cc1)*; Dab = NCC[C@H](N)C(=O)O; Butyryl = CCCC(=O)*
readout: MIC (µg/mL)

[
  {
    "molecule": "CC(C)C[C@@H]1NC(=O)[C@@H](Cc2ccccc2)NC(=O)[C@H](CCN)NC(=O)[C@@H](NC(=O)[C@H](CCN)NC(=O)[C@@H](NC(=O)[C@H](CCNC(=O)c2ccc(-c3ccccc3)cc2)NC(=O)c2ccc(-c3ccccc3)cc2)[C@@H](C)O)CCNC(=O)[C@H]([C@@H](C)O)NC(=O)[C@H](CCN)NC(=O)[C@H](CCN)NC1=O [Compound 5] ({Benzoyl(4-Ph)}-[Dab](Benzoyl(4-Ph))T[Dab][Dab][Dab][dF]L[Dab][Dab]T; lactam 4-C)",
    "measured.on": "P. aeruginosa CANWARD-2011 96846",
    "lt.gt.eq": "=",
    "recorded.result": 64
  },
  {
    "molecule": "CCCC(=O)NCC[C@H](NC(=O)CCC)C(=O)N[C@H](C(=O)N[C@@H](CCN)C(=O)N[C@H]1CCNC(=O)[C@H]([C@@H](C)O)NC(=O)[C@H](CCN)NC(=O)[C@H](CCN)NC(=O)[C@H](CC(C)C)NC(=O)[C@@H](Cc2ccccc2)NC(=O)[C@H](CCN)NC1=O)[C@@H](C)O [Compound 1, Dibutyric Acid (Di-C4) Polymyxin] (Butyryl-[Dab](Butyryl)T[Dab][Dab][Dab][dF]L[Dab][Dab]T; lactam 4-C)",
    "measured.on": "P. aeruginosa CANWARD-2011 96846",
    "lt.gt.eq": ">",
    "recorded.result": 128
  },
  {
    "molecule": "CC(C)C[C@@H]1NC(=O)[C@@H](Cc2ccccc2)NC(=O)[C@H](CCN)NC(=O)[C@@H](NC(=O)[C@H](CCN)NC(=O)[C@@H](NC(=O)[C@H](CCNC(=O)CC23CC4CC(CC(C4)C2)C3)NC(=O)CC23CC4CC(CC(C4)C2)C3)[C@@H](C)O)CCNC(=O)[C@H]([C@@H](C)O)NC(=O)[C@H](CCN)NC(=O)[C@H](CCN)NC1=O [Compound 4] ({Acetyl(1-adamantyl)}-[Dab](Acetyl(1-adamantyl))T[Dab][Dab][Dab][dF]L[Dab][Dab]T; lactam 4-C)",
    "measured.on": "P. aeruginosa CANWARD-2011 96846",
    "lt.gt.eq": "=",
    "recorded.result": 32
  }
]

###

tested on: P. aeruginosa PAO1; parameters: unit not given beside the values; details: in combination with Rifampicin
Positions of bridges follow the written chain, without caps; N, C: chain ends. Non-standard residues stand in square brackets, D forms with d. Residues, ends and D or L forms follow the SMILES beside them. *: point of attachment. Acetyl(1-adamantyl) = O=C(CC12CC3CC(CC(C3)C1)C2)*; Dab = NCC[C@H](N)C(=O)O
readout: MIC of adjuvant in combo

[
  {
    "molecule": "CC(C)C[C@@H]1NC(=O)[C@@H](Cc2ccccc2)NC(=O)[C@H](CCN)NC(=O)[C@@H](NC(=O)[C@H](CCN)NC(=O)[C@@H](NC(=O)[C@H](CCNC(=O)CC23CC4CC(CC(C4)C2)C3)NC(=O)CC23CC4CC(CC(C4)C2)C3)[C@@H](C)O)CCNC(=O)[C@H]([C@@H](C)O)NC(=O)[C@H](CCN)NC(=O)[C@H](CCN)NC1=O [Compound 4] ({Acetyl(1-adamantyl)}-[Dab](Acetyl(1-adamantyl))T[Dab][Dab][Dab][dF]L[Dab][Dab]T; lactam 4-C)",
    "recorded.result": "(4)"
  }
]

###

tested on: P. aeruginosa PAO1; design: unit not given beside the values; conditions: in combination with Clindamycin
Positions of bridges follow the written chain, without caps; N, C: chain ends. Non-standard residues stand in square brackets, D forms with d. Residues, ends and D or L forms follow the SMILES beside them. *: point of attachment. Lauroyl = CCCCCCCCCCCC(=O)*; Octanoyl = CCCCCCCC(=O)*; Dab = NCC[C@H](N)C(=O)O; Butyryl = CCCC(=O)*
readout: MIC of adjuvant in combo

[
  {
    "compound": "CCCCCCCCCCCC(=O)NCC[C@H](NC(=O)CCCCCCCCCCC)C(=O)N[C@H](C(=O)N[C@@H](CCN)C(=O)N[C@H]1CCNC(=O)[C@H]([C@@H](C)O)NC(=O)[C@H](CCN)NC(=O)[C@H](CCN)NC(=O)[C@H](CC(C)C)NC(=O)[C@@H](Cc2ccccc2)NC(=O)[C@H](CCN)NC1=O)[C@@H](C)O [Compound 3, Didodecanoic Acid (Di-C12) Polymyxin] (Lauroyl-[Dab](Lauroyl)T[Dab][Dab][Dab][dF]L[Dab][Dab]T; lactam 4-C)",
    "readout": "MIC of adjuvant in combo",
    "recorded.result": "(16)"
  },
  {
    "compound": "CCCC(=O)NCC[C@H](NC(=O)CCC)C(=O)N[C@H](C(=O)N[C@@H](CCN)C(=O)N[C@H]1CCNC(=O)[C@H]([C@@H](C)O)NC(=O)[C@H](CCN)NC(=O)[C@H](CCN)NC(=O)[C@H](CC(C)C)NC(=O)[C@@H](Cc2ccccc2)NC(=O)[C@H](CCN)NC1=O)[C@@H](C)O [Compound 1, Dibutyric Acid (Di-C4) Polymyxin] (Butyryl-[Dab](Butyryl)T[Dab][Dab][Dab][dF]L[Dab][Dab]T; lactam 4-C)",
    "readout": "MIC of adjuvant in combo",
    "recorded.result": "(8)"
  },
  {
    "compound": "CCCCCCCC(=O)NCC[C@H](NC(=O)CCCCCCC)C(=O)N[C@H](C(=O)N[C@@H](CCN)C(=O)N[C@H]1CCNC(=O)[C@H]([C@@H](C)O)NC(=O)[C@H](CCN)NC(=O)[C@H](CCN)NC(=O)[C@H](CC(C)C)NC(=O)[C@@H](Cc2ccccc2)NC(=O)[C@H](CCN)NC1=O)[C@@H](C)O [Compound 2, Dioctanoic Acid (Di-C8) Polymyxin] (Octanoyl-[Dab](Octanoyl)T[Dab][Dab][Dab][dF]L[Dab][Dab]T; lactam 4-C)",
    "readout": "MIC of adjuvant in combo",
    "recorded.result": "(2)"
  }
]

###

test system: P. aeruginosa PAO1; set-up: unit not given beside the values; details: in combination with Moxifloxacin
Positions of bridges follow the written chain, without caps; N, C: chain ends. Non-standard residues stand in square brackets, D forms with d. Residues, ends and D or L forms follow the SMILES beside them. *: point of attachment. Acetyl(1-adamantyl) = O=C(CC12CC3CC(CC(C3)C1)C2)*; Benzoyl(4-Ph) = O=C(c1ccc(-c2ccccc2)cc1)*; Lauroyl = CCCCCCCCCCCC(=O)*; Octanoyl = CCCCCCCC(=O)*; Dab = NCC[C@H](N)C(=O)O; Butyryl = CCCC(=O)*

[
  {
    "molecule": "CCCC(=O)NCC[C@H](NC(=O)CCC)C(=O)N[C@H](C(=O)N[C@@H](CCN)C(=O)N[C@H]1CCNC(=O)[C@H]([C@@H](C)O)NC(=O)[C@H](CCN)NC(=O)[C@H](CCN)NC(=O)[C@H](CC(C)C)NC(=O)[C@@H](Cc2ccccc2)NC(=O)[C@H](CCN)NC1=O)[C@@H](C)O [Compound 1, Dibutyric Acid (Di-C4) Polymyxin] (Butyryl-[Dab](Butyryl)T[Dab][Dab][Dab][dF]L[Dab][Dab]T; lactam 4-C)",
    "MIC of adjuvant in combo": "(16)"
  },
  {
    "molecule": "CC(C)C[C@@H]1NC(=O)[C@@H](Cc2ccccc2)NC(=O)[C@H](CCN)NC(=O)[C@@H](NC(=O)[C@H](CCN)NC(=O)[C@@H](NC(=O)[C@H](CCNC(=O)CC23CC4CC(CC(C4)C2)C3)NC(=O)CC23CC4CC(CC(C4)C2)C3)[C@@H](C)O)CCNC(=O)[C@H]([C@@H](C)O)NC(=O)[C@H](CCN)NC(=O)[C@H](CCN)NC1=O [Compound 4] ({Acetyl(1-adamantyl)}-[Dab](Acetyl(1-adamantyl))T[Dab][Dab][Dab][dF]L[Dab][Dab]T; lactam 4-C)",
    "MIC of adjuvant in combo": "(4)"
  },
  {
    "molecule": "CCCCCCCCCCCC(=O)NCC[C@H](NC(=O)CCCCCCCCCCC)C(=O)N[C@H](C(=O)N[C@@H](CCN)C(=O)N[C@H]1CCNC(=O)[C@H]([C@@H](C)O)NC(=O)[C@H](CCN)NC(=O)[C@H](CCN)NC(=O)[C@H](CC(C)C)NC(=O)[C@@H](Cc2ccccc2)NC(=O)[C@H](CCN)NC1=O)[C@@H](C)O [Compound 3, Didodecanoic Acid (Di-C12) Polymyxin] (Lauroyl-[Dab](Lauroyl)T[Dab][Dab][Dab][dF]L[Dab][Dab]T; lactam 4-C)",
    "MIC of adjuvant in combo": "(16)"
  },
  {
    "molecule": "CC(C)C[C@@H]1NC(=O)[C@@H](Cc2ccccc2)NC(=O)[C@H](CCN)NC(=O)[C@@H](NC(=O)[C@H](CCN)NC(=O)[C@@H](NC(=O)[C@H](CCNC(=O)c2ccc(-c3ccccc3)cc2)NC(=O)c2ccc(-c3ccccc3)cc2)[C@@H](C)O)CCNC(=O)[C@H]([C@@H](C)O)NC(=O)[C@H](CCN)NC(=O)[C@H](CCN)NC1=O [Compound 5] ({Benzoyl(4-Ph)}-[Dab](Benzoyl(4-Ph))T[Dab][Dab][Dab][dF]L[Dab][Dab]T; lactam 4-C)",
    "MIC of adjuvant in combo": "(8)"
  },
  {
    "molecule": "CC(C)C[C@@H]1NC(=O)[C@@H](Cc2ccccc2)NC(=O)[C@H](CCN)NC(=O)[C@@H](NC(=O)[C@H](CCN)NC(=O)[C@@H](N)[C@@H](C)O)CCNC(=O)[C@H]([C@@H](C)O)NC(=O)[C@H](CCN)NC(=O)[C@H](CCN)NC1=O [PMBN, polymyxin B nonapeptide, reference compound] (H-T[Dab][Dab][Dab][dF]L[Dab][Dab]T; lactam 3-C (inferred))",
    "MIC of adjuvant in combo": "(32)"
  },
  {
    "molecule": "CCCCCCCC(=O)NCC[C@H](NC(=O)CCCCCCC)C(=O)N[C@H](C(=O)N[C@@H](CCN)C(=O)N[C@H]1CCNC(=O)[C@H]([C@@H](C)O)NC(=O)[C@H](CCN)NC(=O)[C@H](CCN)NC(=O)[C@H](CC(C)C)NC(=O)[C@@H](Cc2ccccc2)NC(=O)[C@H](CCN)NC1=O)[C@@H](C)O [Compound 2, Dioctanoic Acid (Di-C8) Polymyxin] (Octanoyl-[Dab](Octanoyl)T[Dab][Dab][Dab][dF]L[Dab][Dab]T; lactam 4-C)",
    "MIC of adjuvant in combo": "(2)"
  }
]
